RNA polymerase II Serine 5 phosphorylation (CDK7) in A549 cells: reported IC50 for various compounds.

>  <compound>
C=CC(=O)N1CC[C@H](N2CC(c3cc4c(c(C5CC5)c3)O[C@H](C)c3c(ncnc3N3CCS(=O)(=O)CC3)N4)C2)C1 (single isomer, unassigned)

>  <IC50>
~0.955 µM

$$$$
>  <compound>
C=CC(=O)N1CC(N2CC(c3cc(C)c4c(c3)Nc3ncnc(N5CCOCC5)c3C(C)O4)C2)C1 (stereo not shown)

>  <IC50>
~1.02 µM

$$$$
>  <compound>
CC#CC(=O)N1CCC(N2CCC(c3cc(C)c4c(c3)Nc3ncnc(N5CCS(=O)(=O)CC5)c3[C@@H](C)O4)CC2)CC1

>  <IC50>
< 0.00245 µM

$$$$

Below: the item to evaluate.
Can you look up the measured IC50 of Cc1cc(C2CN([C@@H]3CCN(C(=O)C#CCCN(C)C)C3)C2)cc2c1O[C@H](C)c1c(ncnc1N1CCS(=O)(=O)CC1)N2 (single isomer, unassigned) for me?
~0.0129 µM
